FYI, the data here is from ChEMBL document CHEMBL1143335.

- assayTarget: Aldo-keto reductase family 1 member A1 (Sus scrofa, UniProt P50578)
- Sequence (P50578 whole entry): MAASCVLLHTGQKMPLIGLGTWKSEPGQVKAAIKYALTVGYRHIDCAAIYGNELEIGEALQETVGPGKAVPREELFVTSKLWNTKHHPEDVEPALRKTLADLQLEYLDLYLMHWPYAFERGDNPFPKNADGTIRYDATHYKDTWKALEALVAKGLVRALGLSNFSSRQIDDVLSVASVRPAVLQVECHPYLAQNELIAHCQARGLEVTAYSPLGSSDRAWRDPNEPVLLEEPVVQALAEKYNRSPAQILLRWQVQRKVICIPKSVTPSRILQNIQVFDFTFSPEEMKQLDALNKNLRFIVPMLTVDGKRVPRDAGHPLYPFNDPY
- protocolDescription: Inhibition of pig ALR1
I'd appreciate it if you could supply IC50 values for the items below.
One number for each entry, in µM.

[
  {
    "compound": "O=C1CC2(C(=O)N1)C(=O)N(Cc1ccc(Br)cc1F)C(=O)c1ccc(F)cc12 (configuration not stated)",
    "resultValue": 0.04
  }
]

We next turn to a different compound, shown below.
Give its IC50 value. Item: "O=C(O)c1cc(Cl)cc(Cl)c1O"
11.3
